- Tested on: RIPK5;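 also: KINOMEscan kinase panel screen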
- experimental_parameters: concentration: 1 μM, replicates: in singlicate; n = 1

| molecule | %Inh [%] |
| --- | --- |
| O=c1cc(N2CCOCC2)nc2n(Cc3cccc(Cl)c3Cl)c(C3CC3)nn12 [GSK2358994] | 7 |
| C[C@@H](Oc1cc(-n2cnc3ccc(NC(=O)NC(C)(C)C)cc32)sc1C(N)=O)c1ccccc1Cl [GSK346294] | 10 |
| O=C(NCCNc1ccnc(Nc2ccc(F)cc2)n1)Nc1ccccc1F [GSK1379880] | 0 |
| COc1cc2ncn(-c3cc(OCc4sccc4Cl)c(C(N)=O)s3)c2cc1OC [GSK448459] | 0 |
| Cc1c2ccc(N(C)c3ccnc(Nc4cccc(S(N)(=O)=O)c4)n3)cc2nn1Cc1ccccc1.Cl.Cl [GW787226] | 28 |
| CC(C)Oc1ccc2c(-c3ccnc(Nc4ccc(N5CCN(C)CC5)cc4)n3)cnn2n1 [GW696155] | 77 |
| [2H]C([2H])(c1cccc(C(F)(F)F)c1C)n1ccn2c(=O)nc(N3CCOCC3)cc12 [GSK2336394] | 0 |
| Fc1ccc(-c2ncn(CCCN3CCOCC3)c2-c2ccccn2)cc1 [SB-211742] | 0 |
| Cc1ccc(NC(=O)c2ccnc(N3CCN(C)CC3)c2)cc1-c1ccc(C(=O)NCC2CC2)cc1 [GW775604] | 0 |
| Cc1c(Cn2c(C)nn3c(=O)cc(N4CCOC(C)C4)nc23)cccc1C(F)(F)F (stereo not drawn) [GSK2344444] | 0 |
| CCn1cnc2c(N)ncnc21 [GW345098] | 38 |
| Cc1cccc(Cn2ccn3c(=O)cc(N4CCOCC4)nc23)c1 [GSK2297542] | 1 |
| O=C1Cc2cc(Nc3nc(NCc4cccc(S(=O)(=O)C(F)(F)F)c4)ncc3C(F)(F)F)ccc2N1 | 4 |
| NS(=O)(=O)CCc1cccc(Nc2nccc(-c3c(-c4cccc(NC(=O)c5c(F)cccc5F)c4)nn4ccccc34)n2)c1 [GSK336735] | 10 |
| COc1ccc(COc2cc(-n3cnc4ccccc43)sc2C(N)=O)cc1 [GSK1024304] | 0 |
| Cn1cc(-c2ccc3c(c2)CCN3C(=O)Cc2ccccc2Cl)c2c(N)ncnc21 [GSK2608885] | 13 |
| N#Cc1c(N2CCOCC2)sc(-c2ccn[nH]2)c1-c1ccc(Cl)cc1 | 15 |
| CCCCCc1nc2c(N)ncnc2n1CCCCC [SKF-97255] | 8 |
| Cl.Oc1cccc(Nc2ccnc3cc(-c4ccncc4)ccc23)c1 [GW494601] | 0 |
| CCc1nc(-c2cccc(C)c2)c(-c2ccnc(NCc3ccccc3)c2)s1 | 14 |
| COc1ccc(Nc2nccc(N3CCC(NC(=O)Nc4cccc(C(C)=O)c4)C3)n2)cc1 (stereo not drawn) [GSK1379731] | 0 |
| COc1cc2c(cc1OCCN1CCN(C)CC1)ncc1c3ccc(C#N)cc3[nH]c21 | 33 |
| c1ccc(-c2n[nH]cc2-c2ccnc3ccccc23)nc1 [GW271431] | 0 |
| CC(C)(C)n1cnc2c(N)ncnc21 [SKF-97359] | 0 |
| COc1ccc(Nc2nccc(N3CCC(NC(=O)Nc4cc(C)ccc4C)C3)n2)cc1 (stereo not drawn) [GSK1379741] | 0 |
| Cc1cccc(-c2nc(Nc3ccc4ncsc4c3)c3ccccc3n2)n1 [GW867588] | 24 |
| NS(=O)(=O)c1cccc(-c2ccc3ncc(N4CCOCC4)nc3c2)c1 [GSK1535721] | 8 |
| O=C(NCCCN1CCOCC1)c1cccc(Nc2nccc(Nc3ccc(Oc4ccccc4)cc3)n2)c1 [GW663929] | 7 |
| Nc1nc(-c2ccc3c(N)n[nH]c3c2)cc(N2CCCC2)n1 [GSK2227430] | 0 |
| O=C(c1ccc(-c2cc(-c3c[nH]nc3-c3ccccn3)ccn2)cc1)N1CCOCC1 [GW812171] | 22 |
| O=c1cc(N2CCOCC2)nc2n(Cc3cccc(C(F)(F)F)c3)ccn12 [GSK2297543] | 0 |
| Cc1nnc(-c2ccc3occ(-c4ccc(C(C)O)cc4)c3c2)o1 (stereo not drawn) | 0 |
| COc1ccc(S(=O)(=O)NC2CCN(c3cc(C)nc(Nc4cccc(C#N)c4)n3)CC2)cc1.O=C(O)C(F)(F)F [GSK1653539] | 0 |
| O=C(NCCNc1ccnc(Nc2ccc(F)cc2)n1)c1cc2ccccc2s1 [GSK1379874] | 0 |
| CNc1ncnc2[nH]ncc12 [SKF-18355] | 8 |
| Cc1cccc(-c2nc(-c3ccc(S(C)(=O)=O)cc3)sc2-c2ccncc2)c1 | 18 |

Source: paper PMC5540273
